# target_of_assay: T1, human CD71 extracellular domain (human, UniProt P02786 89-760)
# T1 construct: also called hCD71; human CD71-ECD
# protocol_details: primary ELISA; note: test concentration or dose not given here
measured_metric: RLU (RLU)

Take a look at these entries with their results.
[[record]]
binder = "CD71-binding FN3 domain of SEQ ID NO: 179 (designed binder) MSLPAPKNLVVSRVTEDSARLSWTAPDAAFDSFFIGYLEPQPPGEAITLLVPGSERSYDLTGLKPGTEYNVTIQGVKGGFPSHPLVATTTT"
observed_measurement = "4.11e+06"

[[record]]
binder = "CD71-binding FN3 domain of SEQ ID NO: 169 (designed binder) MSLPAPKNLVVSRVTEDSARLSWTAPDAAFDSFEIGYFENLYLGEAIVLTVPGSERSYDLTGLKPGTEYWVQIGGVKGGNWSAPLSATFTT"
observed_measurement = "2.63e+06"

[[record]]
binder = "CD71-binding FN3 domain of SEQ ID NO: 158 (designed binder) MSLPAPKNLVVSRVTEDSARLSWTAPDAAFDSFEIAYFERTWFGEAIVLTVPGSERSYDLTGLKPGTEYWVQIGGVKGGDWSKPLSAIFTT"
observed_measurement = "4.48e+06"


[I] CD71-binding FN3 domain of SEQ ID NO: 215 (designed binder) MSLPAPKNLVVSRVTEDSARLSWTAPDAAFDSLEIGYFENLYLGEAIVLTVPGSERSYDLTGLKPGTEYWVQIGGVKGGNWSAPLSAIFTT
[II] CD71-binding FN3 domain of SEQ ID NO: 201 (designed binder) MSLPAPKNLVVSRVTEDSARLSWTAPDAAFDSFEIAYFEGTFHGEAIVLFVPGSERSYDLTGLKPGTEYAVWIGGVKGGDYSRPLSAAFTT
[III] CD71-binding FN3 domain of SEQ ID NO: 164 (designed binder) MSLPAPKNLVVSRVTEDSARLSWTAPDAAFDSFFIGYLEPQPPGEAIHLYVPGSERSYDLTGLKPGTEYWVQIGGVKGGNWSAPLSAIFTT
[IV] CD71-binding FN3 domain of SEQ ID NO: 214 (designed binder) MSLPAPKNLVVSRVTEDSARLSWTAPDAAFDSFEIDYGEYSQAGEAIGLLVPGSERSYDLTGLKPGTEYWVQIGGVKGGNWSAPLSAIFTT
Lookup: Put the binders in ascending order of RLU. State the ranking by listing the labels in the requested order.
Found: IV, II, I, III
